Sourced from paper PMC11079024

measurement_target: C. elegans (N2) complex I (NADH:ubiquinone oxidoreductase) (Caenorhabditis elegans, UniProt P24887+Q93873+Q94360)
Sequence (Q94360 17-199): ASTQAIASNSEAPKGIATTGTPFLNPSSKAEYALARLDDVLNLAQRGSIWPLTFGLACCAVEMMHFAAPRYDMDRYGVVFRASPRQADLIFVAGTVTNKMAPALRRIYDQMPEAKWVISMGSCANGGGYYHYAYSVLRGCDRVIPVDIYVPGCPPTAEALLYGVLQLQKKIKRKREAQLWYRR
Sequence (P24887 whole entry): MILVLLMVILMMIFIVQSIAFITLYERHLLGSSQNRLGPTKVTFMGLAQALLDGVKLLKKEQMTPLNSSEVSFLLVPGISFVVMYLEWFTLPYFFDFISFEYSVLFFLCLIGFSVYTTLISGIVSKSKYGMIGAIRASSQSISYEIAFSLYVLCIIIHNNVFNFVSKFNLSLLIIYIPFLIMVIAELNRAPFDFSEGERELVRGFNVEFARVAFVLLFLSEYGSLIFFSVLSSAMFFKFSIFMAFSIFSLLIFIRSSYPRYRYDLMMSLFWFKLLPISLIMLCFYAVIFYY
Sequence (Q93873 31-482): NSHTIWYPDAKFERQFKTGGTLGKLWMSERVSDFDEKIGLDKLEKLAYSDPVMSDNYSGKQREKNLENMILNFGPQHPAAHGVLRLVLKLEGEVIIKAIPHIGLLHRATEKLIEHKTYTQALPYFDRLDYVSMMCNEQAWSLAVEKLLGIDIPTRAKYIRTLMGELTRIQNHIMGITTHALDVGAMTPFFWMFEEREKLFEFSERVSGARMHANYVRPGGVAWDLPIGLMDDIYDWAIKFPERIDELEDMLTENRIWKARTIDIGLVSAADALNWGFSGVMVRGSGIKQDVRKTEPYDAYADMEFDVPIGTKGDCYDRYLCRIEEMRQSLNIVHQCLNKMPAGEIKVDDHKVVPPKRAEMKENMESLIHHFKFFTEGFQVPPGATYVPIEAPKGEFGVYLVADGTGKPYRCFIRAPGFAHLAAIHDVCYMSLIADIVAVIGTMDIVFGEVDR
assay_summary: biochemical
Assay type: biochemical
condition_summary: dose 0.625 µM; wild-type C. elegans; mean of replicates; read-out: in vitro complex I activity relative to solvent control, Mean

- molecule: "COC(=O)Nc1nc2ccc(Sc3ccccc3)cc2[nH]1 [fenbendazole, reference compound]"
  remaining activity at 0.625 µM (%): 101
- molecule: "CC(C)(C)c1ccc(CCOc2ncnc3ccccc23)cc1 [Fenazaquin, reference compound]"
  remaining activity at 0.625 µM (%): 2.18
- molecule: "Cc1ccccc1OCCCCn1cnc2ccccc21 [Compound 7732524]"
  remaining activity at 0.625 µM (%): 10.1
- molecule: "Cc1nc2ccccc2n1Cc1ccc(Cl)cc1 [STK697993]"
  remaining activity at 0.625 µM (%): 15.5
- molecule: "C=C(C)[C@H]1Cc2c(ccc3c2O[C@@H]2COc4cc(OC)c(OC)cc4[C@@H]2C3=O)O1 [Rotenone, reference compound]"
  remaining activity at 0.625 µM (%): 0.888

----------
measurement_target: B. taurus (heart) complex I (Bos taurus, UniProt P03887+P17694+P42026)
Sequence (P03887 whole entry): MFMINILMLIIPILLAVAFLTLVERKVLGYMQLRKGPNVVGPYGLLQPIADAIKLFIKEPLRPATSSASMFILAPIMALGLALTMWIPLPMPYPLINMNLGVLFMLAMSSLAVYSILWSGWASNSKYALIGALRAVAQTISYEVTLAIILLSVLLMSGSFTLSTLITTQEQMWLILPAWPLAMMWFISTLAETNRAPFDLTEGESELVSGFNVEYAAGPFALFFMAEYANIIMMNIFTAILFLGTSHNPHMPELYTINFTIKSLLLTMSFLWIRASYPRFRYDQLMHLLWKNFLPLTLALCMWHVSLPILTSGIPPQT
Sequence (P17694 34-463): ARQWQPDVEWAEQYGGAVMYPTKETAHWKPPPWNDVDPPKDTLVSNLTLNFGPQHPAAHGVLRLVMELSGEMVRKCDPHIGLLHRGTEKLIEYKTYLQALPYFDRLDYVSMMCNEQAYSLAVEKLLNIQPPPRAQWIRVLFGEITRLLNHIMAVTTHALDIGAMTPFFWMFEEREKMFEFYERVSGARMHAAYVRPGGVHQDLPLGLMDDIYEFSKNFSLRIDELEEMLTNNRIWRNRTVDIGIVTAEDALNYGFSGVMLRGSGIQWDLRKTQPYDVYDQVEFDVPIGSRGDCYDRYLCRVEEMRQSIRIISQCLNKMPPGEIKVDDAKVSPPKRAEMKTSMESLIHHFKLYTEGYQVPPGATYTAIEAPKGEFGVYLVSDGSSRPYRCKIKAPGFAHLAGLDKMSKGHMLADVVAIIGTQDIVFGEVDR
Sequence (P42026 38-216): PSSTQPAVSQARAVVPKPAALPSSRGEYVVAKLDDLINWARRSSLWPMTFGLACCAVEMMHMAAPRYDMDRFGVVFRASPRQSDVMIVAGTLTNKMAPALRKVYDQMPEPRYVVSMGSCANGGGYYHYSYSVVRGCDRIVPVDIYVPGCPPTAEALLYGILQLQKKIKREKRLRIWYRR
assay_summary: biochemical
Assay type: biochemical
condition_summary: Dose 0.0025 µM; read-out: B. taurus mitochondrial complex I activity
Let's look at some molecules and their measured activity at 0.0025 µM.
test_readout: activity at 0.0025 µM (%)

- molecule: "Cc1ccc(C(C)C)c(OCC(O)Cn2cnc3ccccc32)c1 (centres unmarked) [Compound 6093301]"
  units_text: "%"
  data_value: 100
- molecule: "Clc1ccc(OCCn2cnc3ccccc32)c(Cl)c1 [Compound 7221649]"
  units_text: "%"
  data_value: 97.8
- molecule: "Cc1nc2ccccc2n1CCOc1ccccc1Cl [Compound 5561642]"
  units_text: "%"
  data_value: 85.7
- molecule: "Cc1nc2ccccc2n1CCOc1ccccc1 [Compound 5550112]"
  units_text: "%"
  data_value: 102
- molecule: "Clc1ccc(Cn2cnc3ccccc32)cc1Cl [Compound 5571325]"
  units_text: "%"
  data_value: 99.4
- molecule: "Brc1ccccc1OCCCCn1cnc2ccccc21 [Compound 7924576]"
  units_text: "%"
  data_value: 104
- molecule: "Cc1ccc(OCCn2cnc3ccccc32)cc1 [Compound 5671538]"
  units_text: "%"
  data_value: 100
- molecule: "CC(C)Oc1cccc(OCCn2cnc3ccccc32)c1 [Compound 7926496]"
  units_text: "%"
  data_value: 85.5
- molecule: "Clc1ccc(Cn2cnc3ccccc32)c(Cl)c1 [Compound 6750659]"
  units_text: "%"
  data_value: 100
- molecule: "Clc1ccccc1OCCCCn1cnc2ccccc21 [Compound 7925804]"
  units_text: "%"
  data_value: 118
- molecule: "Cc1ccccc1OCCCn1c(C)nc2ccccc21 [Compound 7916923]"
  units_text: "%"
  data_value: 101
- molecule: "Cc1ccc(OCCn2cnc3ccccc32)c(C)c1 [Compound 7706808]"
  units_text: "%"
  data_value: 97
- molecule: "Cc1ccc(SCCCCn2cnc3ccccc32)cc1 [Compound 7925333]"
  units_text: "%"
  data_value: 83.2
- molecule: "Nc1nc2ccccc2n1CCOc1ccc(Br)cc1 [Compound 5842535]"
  units_text: "%"
  data_value: 94.2
- molecule: "CCCOc1ccc(Cn2cnc3ccccc32)cc1 [Compound 7355741]"
  units_text: "%"
  data_value: 105
- molecule: "Nc1nc2ccccc2n1Cc1ccc(Cl)cc1 [Compound 5652765]"
  units_text: "%"
  data_value: 95.6
- molecule: "Cc1ccc(SCCCn2cnc3ccccc32)cc1 [Compound 7926035]"
  units_text: "%"
  data_value: 106
- molecule: "Cc1ccccc1OCCCCn1cnc2ccccc21 [Compound 7732524]"
  units_text: "%"
  data_value: 93.8
- molecule: "CCc1cc(OCCn2cnc3ccccc32)ccc1Cl [Compound 7925288]"
  units_text: "%"
  data_value: 86.3
- molecule: "FC(F)(F)c1cccc(OCCCCn2cnc3ccccc32)c1 [Compound 7925004]"
  units_text: "%"
  data_value: 88.9
- molecule: "Cc1cccc(OCCn2c(C)nc3ccccc32)c1 [Compound 6285199]"
  units_text: "%"
  data_value: 95.3
- molecule: "Clc1ccc(SCCCCn2cnc3ccccc32)cc1 [Compound 7925515]"
  units_text: "%"
  data_value: 95.6
- molecule: "Cc1nc2ccccc2n1Cc1ccc(Cl)c(Cl)c1 [Compound 5655567]"
  units_text: "%"
  data_value: 94.9
